tested on: MDA-MB-435; assay: NCI tumour cell line growth inhibition, 48 h
recorded-endpoint: TGI (µM)

CN(C)CC(O)c1ccc(Cl)c2ccccc12 (stereo not given)    61.2
O=C(Nc1ccccc1F)c1cc2ccc(O)cc2oc1=Nc1cccc(F)c1    35.7

* * *

Each record here notes measured TGI.
test system: UACC-257 melanoma; test: NCI tumour cell line growth inhibition, 48 h
recorded-endpoint: TGI

CCSC1=NC2C(N(CC)C(=O)N2CC)N1/N=C/C=C/c1ccccc1[N+](=O)[O-] (centres undefined)    > 100 µM
CCCCN(CCCC)Cc1cc(Nc2ccnc3cc(Cl)ccc23)ccc1O    > 100 µM
COc1cc(/C=C2\C(=O)N(c3cccc([N+](=O)[O-])c3)C(c3ccccc3)S2(=O)=O)cc(OC)c1OC (centres undefined)    > 100 µM
CC(=O)OCc1c2ccccc2c(C)c2c1cc(F)c1ccccc12    > 100 µM
CCOC(=O)NC(=O)c1cn(CCN2CCN(C(=O)NCCCCCCNC(=O)N3CCN(CCn4cc(C(=O)NC(=O)OCC)c(=O)[nH]c4=O)CC3)CC2)c(=O)[nH]c1=O    > 100 µM
CCN1C(=O)N(CC)C2C1NN=c1s/c(=C\c3ccc(Cl)cc3Cl)c(=O)n12 (centres undefined)    > 88.4 µM
O=C(O)CN(CC(=O)O)C1CCCCC1N1CC(=O)OC(=O)C1 (centres undefined)    > 100 µM
CCOc1ccccc1CCN=C1NC(=O)/C(=C/c2ccc3ncccc3c2)S1    > 22.7 µM
CC(=O)O[C@H]1CC(C)(C)C(=C=C/C(C)=C/C=C/C=C/C=C(C)/C=C2C=C(/C=C/[C@@]34O[C@]3(C)C[C@@H](O)CC4(C)C)C(=O)O/2)[C@](C)(O)C1    51.5 µM
Fc1ccc(C(OCCN2CCN(CCCc3ccccc3)CC2)c2ccc(F)cc2)cc1    8.62 µM
N#CN1C2CCC1CC(=O)C2    > 100 µM
O=C(O)CC(Cc1ccccc1Cl)C(=O)O (centres undefined)    > 100 µM
N#Cc1c(-c2ccc(Cl)cc2)c2c(nn3c4ccc5ccccc5c4nnc23)[nH]c1=O    18.8 µM
CN(C(=O)/C=C/c1ccccc1)C1C2CN3CCC(O2)C13 (centres undefined)    > 100 µM
CC(=O)c1c(O)c(C)c(O)c(Cc2c(O)c3c(c(C(=O)/C=C/c4ccccc4)c2O)OC(C)(C)C=C3)c1O    7.16 µM
C[N+](C)(C)CCC(=O)CC[N+](C)(C)C    35.9 µM
N#C[Se]Cc1cc(-c2ccccc2)n(-c2ccc(S(N)(=O)=O)cc2)n1    6.63 µM
CCCN1C(=O)NC(=O)C(CC)(N2C(=O)c3c(F)c(F)c(F)c(F)c3C2=O)C1=O (centres undefined)    8.63 µM
N=C1C(=N)c2ccccc2-c2ccccc21.[Cl-].[Ru+2].c1ccc(-c2ccccn2)nc1.c1ccc(-c2ccccn2)nc1    > 100 µM

The origin of these recorded values is PubChem BioAssay (NCI).
